target: T1, Human LILRA1 on transiently transfected HEK293-6E cells (human, UniProt O75019 17-489); experiment: flow cytometry, transiently transfected HEK293-6E cells
T1 construct: whole, on cells; also called hLILRA1
T1 sequence (O75019 17-489): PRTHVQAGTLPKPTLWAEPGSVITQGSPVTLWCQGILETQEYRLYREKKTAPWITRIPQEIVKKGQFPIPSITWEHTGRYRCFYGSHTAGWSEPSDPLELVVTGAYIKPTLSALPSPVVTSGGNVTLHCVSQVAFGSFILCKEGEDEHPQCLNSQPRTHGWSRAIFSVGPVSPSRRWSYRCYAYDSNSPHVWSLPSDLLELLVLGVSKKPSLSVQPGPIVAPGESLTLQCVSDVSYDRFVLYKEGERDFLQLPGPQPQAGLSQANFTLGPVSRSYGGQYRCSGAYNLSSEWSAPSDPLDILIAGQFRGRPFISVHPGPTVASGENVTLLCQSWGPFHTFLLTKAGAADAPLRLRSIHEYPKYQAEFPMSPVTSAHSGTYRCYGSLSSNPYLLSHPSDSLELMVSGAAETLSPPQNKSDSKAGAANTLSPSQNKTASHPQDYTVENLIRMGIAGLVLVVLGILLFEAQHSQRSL
Reported Metric: Bmax (MFI)
Answers are plain numbers, in MFI.

Task: Which Bmax (MFI) is reported for this binder? B2H1-52 (antibody, V domains shown, Humanized variant, human IgG1 / kappa) VH: EVQLLESGGGLVQPGTSLTLSCAASGFSLSTYAMSWVRQAPGKGLEWIGWIYNDGSTYYAAWAKGRFTISKDTSKTTLYLQITSLRAEDTATYFCAREGDYIGYFNIWGQGTLVTVSS VL: DVVMTQSPSSVSASLGDRVTITCQASQSIGSNLAWYQQKPGQAPKLLIYAAATLASGVPSRFKGSGSGTDFTLTITSLQPADFATYYCQSYVSGSSDVAFGGGTKVEIK
Output: 855
